Several reports have described IC50 for the protein given by its sequence; a selection of those results is presented here.
Protein target, amino acids: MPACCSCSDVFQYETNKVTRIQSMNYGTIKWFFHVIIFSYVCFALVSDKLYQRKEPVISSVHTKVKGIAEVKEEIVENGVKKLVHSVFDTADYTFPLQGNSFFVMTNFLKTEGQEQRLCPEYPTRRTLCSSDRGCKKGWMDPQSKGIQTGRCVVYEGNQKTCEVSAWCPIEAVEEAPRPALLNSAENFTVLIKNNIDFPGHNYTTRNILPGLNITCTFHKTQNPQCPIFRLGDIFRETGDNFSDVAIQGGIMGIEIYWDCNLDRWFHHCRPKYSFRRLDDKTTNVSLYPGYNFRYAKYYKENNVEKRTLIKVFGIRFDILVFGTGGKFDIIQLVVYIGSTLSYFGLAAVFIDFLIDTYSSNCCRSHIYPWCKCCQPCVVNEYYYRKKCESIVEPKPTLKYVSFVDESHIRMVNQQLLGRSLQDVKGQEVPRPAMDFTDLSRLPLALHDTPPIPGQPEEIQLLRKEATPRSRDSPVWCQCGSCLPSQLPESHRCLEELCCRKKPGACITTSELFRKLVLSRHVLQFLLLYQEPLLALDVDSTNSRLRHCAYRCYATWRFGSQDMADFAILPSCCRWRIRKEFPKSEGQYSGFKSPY
QUANTITY_KIND: IC50 (nM)

COCCNCCn1ncc(CC(=O)NCc2ccc(F)cc2Cl)c1C(F)(F)F    794
Cc1ccccc1N1CCN(C(=O)c2cccc(C(F)(F)F)c2Cl)CC1=O    10
Cc1noc(C)c1CC(=O)NCc1ccc(F)cc1C(F)(F)F    200
Cc1cccnc1N1CCN(Cc2ccc(F)cc2Cl)C(=O)C1=O    631
Cc1ccc(F)c(CNC(=O)Cc2c(C)noc2C)c1Cl    200

I = O=C(c1cccc(C(F)(F)F)c1Cl)N1CCn2c(-c3ccc(F)cc3)cnc2C1
II = O=C(c1cccc(C(F)(F)F)c1Cl)N1CCn2c(nc(C(F)(F)F)c2-c2ccc(F)cc2)C1
III = Cc1nn(-c2ccccc2)c(C)c1CC(=O)NC1CCCCCC1
IV = O=C(c1cccc(C(F)(F)F)c1Cl)N1CCn2c(-c3ccc(Cl)cc3)cnc2C1
Write the entries in order, lowest recorded IC50 first. To answer, arrange all of the labels according to the requested order. I, II, III, IV
(I: 12.6 nM, II: 79.4 nM, III: 158 nM, IV: 251 nM)

====

// merged dataset of IC50 values, system = the protein given by its sequence, multiple refs
Sequence of the target: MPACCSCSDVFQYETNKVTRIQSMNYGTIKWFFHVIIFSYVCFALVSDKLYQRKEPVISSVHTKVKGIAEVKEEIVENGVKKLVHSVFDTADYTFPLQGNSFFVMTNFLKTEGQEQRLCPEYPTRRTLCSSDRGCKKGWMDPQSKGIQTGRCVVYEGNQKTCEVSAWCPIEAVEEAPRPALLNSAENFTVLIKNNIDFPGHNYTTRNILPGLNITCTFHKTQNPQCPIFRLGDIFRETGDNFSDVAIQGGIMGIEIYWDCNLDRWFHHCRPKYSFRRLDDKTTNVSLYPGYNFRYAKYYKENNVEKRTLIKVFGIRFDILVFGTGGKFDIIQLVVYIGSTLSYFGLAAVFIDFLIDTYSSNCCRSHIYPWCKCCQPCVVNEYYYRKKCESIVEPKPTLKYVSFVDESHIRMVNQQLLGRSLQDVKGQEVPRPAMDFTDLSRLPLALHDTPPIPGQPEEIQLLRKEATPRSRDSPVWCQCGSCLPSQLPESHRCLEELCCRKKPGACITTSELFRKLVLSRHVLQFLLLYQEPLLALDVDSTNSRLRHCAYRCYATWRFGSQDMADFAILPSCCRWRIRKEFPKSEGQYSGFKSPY
QUANTITY_KIND: IC50 (µM)

Take a look at these entries with their results.
Cc1c(OCCN2CCOCC2)cccc1N1CCN(Cc2ccc(F)cc2Cl)C(=O)C1=O    0.1
CN1C(=O)N(c2ccnc(F)c2)C[C@H]1C(=O)NCc1cccc(C(F)(F)F)c1Cl    0.0631
CC(C)CN1C(=O)CC[C@H]1C(=O)NCc1ccc(F)cc1Cl    0.398
Cc1nn(Cc2nc3ccccc3s2)c(C)c1CC(=O)NCc1ccc(F)cc1Cl    0.398

A = CCN1C(=O)CC[C@H]1C(=O)NCc1cccc(C)c1C
B = O=C1CSC(=O)N1C(CCc1ccncc1)COc1ccc(-c2cccc([N+](=O)[O-])c2)cc1 (stereo not given)
C = Cc1ccccc1N1CCN(Cc2ccc(Cl)cc2)C(=O)C1=O
D = Cc1c(F)ccc(N2CCN(Cc3ccc(F)cc3Cl)C(=O)C2=O)c1C
E = Cc1n[nH]c(C)c1CC(=O)NCc1ccc(F)c(F)c1F
Hi! Can you put these in order of IC50, lowest number first? Give the order by naming the labels one after another as requested. B, E, A, D, C
(B: 0.031 µM, E: 0.0631 µM, A: 0.1 µM, D: 0.2 µM, C: 0.398 µM)

====

The entries below pair compounds with IC50 values for P2X purinoceptor 7 (Homo sapiens), as found in several publications.
QUANTITY_KIND: IC50 (nM)

Here's what some known entries look like.
Cc1ccc(N2CCOCC2)cc1N1CCN(Cc2ccc(F)cc2Cl)C(=O)C1=O    31.6
CC(C)N1C(=O)CC[C@H]1C(=O)NCc1ccc(Cl)cc1Cl    7.94
Cc1ccccc1N1CCN(Cc2cc(Cl)ccc2Cl)C(=O)C1=O    1000

I = Cc1cc(Cl)cc(Cl)c1CNC(=O)[C@@H]1CNC(=O)N1C
II = CN1CCN(C(=O)c2ccc(F)cc2Cl)CC1=O
Parameter check: reported IC50 is higher for which label, I or II ? Pick one and reply with its label. II
(II: 501 nM, I: 1.26 nM)

I = Cc1cc(-c2nnc3n2CCN(C(=O)c2cccc(C(F)(F)F)c2Cl)C3)no1
II = Cc1noc(C)c1CC(=O)NCc1ccc(C(F)(F)F)c(F)c1
Between the entries labeled I and II , whose measured IC50 is lower? Answer by quoting the chosen item's label. I
(I: 12.6 nM, II: 398 nM)

P = Cc1cnccc1N1CCN(Cc2ccc(F)cc2Cl)C(=O)C1=O
Q = CN1C(=O)CC[C@H]1C(=O)NCc1cccc(C(F)(F)F)c1C#N
R = O=C(c1cccc(C(F)(F)F)c1Cl)N1CCn2c(nnc2-c2ccco2)C1
S = Cc1nn(CC(F)(F)F)c(C)c1CC(=O)NCc1ccc(F)cc1Cl
T = CC(C)N1C(=O)CC[C@H]1C(=O)NCc1ccc(F)c(F)c1Cl
Rank descending by IC50. A complete answer lists every label in the requested sequence. P, S, T, Q, R

I = O=C(c1cccc(C(F)(F)F)c1Cl)N1CCN(c2ccccc2Cl)C(=O)C1
II = CN1C(=O)N(CC(F)(F)F)C[C@H]1C(=O)NCc1ccc(Cl)cc1Cl
III = Cc1c(CC(=O)NCc2ccc(F)cc2Cl)cnn1-c1ccc(F)cc1
IV = Cn1nccc1CC(=O)NCc1ccc(F)c(F)c1Cl
V = O=C1C(=O)N(c2cccc3cccnc23)CCN1Cc1ccc(F)cc1Cl
Rank entries according to their IC50, from the largest number down. Please list the labels in the order you were asked to rank them. V, III, IV, I, II

1 = O=C(c1cccc(C(F)(F)F)c1Cl)N1CCn2c(nc(C(F)(F)F)c2Br)C1
2 = Cc1nn(-c2ccccc2)c(C)c1CC(=O)NCc1c(F)cccc1Cl
// select label with min value of measured IC50 from [ 1 , 2 ] The response must carry the label of the picked entry. 1
(1: 5.01 nM, 2: 316 nM)

A = Cc1nn(-c2ccccc2F)c(C)c1CC(=O)NCc1ccc(F)cc1Cl
B = O=C(NCc1ccc(F)cc1Cl)[C@@H]1CCC(=O)N1C1CCCC1
C = CN1C(=O)N(c2ncc(Cl)cn2)C[C@H]1C(=O)NCc1ccc(Cl)cc1Cl
// sort entries: IC50, high to low Your answer should be the labels, listed in the requested order. B, A, C
(B: 501 nM, A: 158 nM, C: 6.31 nM)

====

Published IC50 for P2X purinoceptor 7 (Homo sapiens, UniProt Q99572), assembled from different documents, is shown next.
QUANTITY_KIND: IC50 (µM)

# annotated cases, reported IC50 shown
CCN1[C@H](C(=O)NCc2ccc(F)cc2C(F)(F)F)CCS1(=O)=O    0.126
Cc1nc(-c2ccccc2)n(C)c1CC(=O)NCc1ccc(F)cc1Cl    0.0501
Cc1ccccc1-n1cc(CC(=O)NCc2ccc(F)cc2Cl)cn1    0.631
Cc1nnc2n1CCN(C(=O)c1cccc(C(F)(F)F)c1Cl)C2    0.0316
Cc1cccc(Cl)c1CNC(=O)[C@@H]1CCS(=O)(=O)N1C    0.398

A = CCN1C(=O)CC[C@H]1C(=O)NCc1ccc(Cl)c(Cl)c1
B = O=C(c1ccc(F)cc1Cl)N1CCn2c(nnc2-c2cccc(F)c2)C1
C = Cc1nn(-c2ccc(Cl)cc2)c(C)c1CC(=O)NCc1ccc(F)cc1Cl
Put the entries in order of IC50, starting with the largest number. Please list each label once, in the requested order. A, C, B

a = Cc1n[nH]c(C)c1CC(=O)NCc1ccccc1Br
b = CCCN1CCN(C(=O)c2cccc(C(F)(F)F)c2Cl)CC1=O
From the recorded data, which exceeds the other in IC50: a or b ? Answer = label. a
(a: 0.251 µM, b: 0.0501 µM)
